Overview of recorded IGFBP1 mRNA for various substances
- Test system: IGFBP-1
- protocol: IGFBP-1 mRNA expression in HepG2 cells
- Format: cell-based, human
- condition.notes: HepG2 cells, Experiment 1, basal (no insulin), four hours; UTC = 100
In the oligonucleotide strings, read from the 5' end, every base follows the letter of its sugar. An asterisk marks phosphorothioate; unmarked linkages are phosphodiester. Other units and linkages are bracketed, terminal groups are in braces. A string of capitals states the bases alone. e = 2'-O-(2-methoxyethyl) (MOE); [5mC] = 5-methylcytosine
Field format: numeric only.

Worked cases, answers included:
# input Would you mind telling me what IGFBP1 mRNA value was observed for 341800 (antisense AAGCCCAAAAGGAGAAUUCUUUG; all 2'-MOE, all phosphorothioate, methylation of C and T or U not given here) [compound 341800] ?
# output 114

# input Reported IGFBP1 mRNA, substance 341807 (antisense CTGGGACTTTGTAGGCCAGTT; all 2'-MOE, all phosphorothioate, methylation of C not given here) [compound 341807] : ____
# output 129

# input Reported IGFBP1 mRNA for 327895 (antisense eA*e[5mC]*eA*eA*eA*e[5mC]*eA*e[5mC]*e[5mC]*eA*eT*eT*eG*eT*e[5mC]*eA*e[5mC]*eA*e[5mC]*eT*e[5mC]*e[5mC]*eA) [compound 327895] : what is it?
# output 108

# input # IGFBP1 mRNA lookup, item 327961 (antisense eG*eG*eG*eG*eT*eA*eT*eT*eT*eG*eA*e[5mC]*eA*eA*eA*e[5mC]*eT*eG*eA*e[5mC]*eA) [compound 327961]
# output 150

# input May I ask what IGFBP1 mRNA has been recorded for 327964 (antisense e[5mC]*e[5mC]*eA*eA*eG*eT*eT*e[5mC]*eT*eG*eT*e[5mC]*eA*eT*eG*e[5mC]*eA*e[5mC]*eT*eG*eA) [compound 327964] ?
# output 100

# input Fill blank: measured IGFBP1 mRNA of the substance 327900 (antisense e[5mC]*eT*eG*e[5mC]*e[5mC]*eT*eG*eT*e[5mC]*eT*eG*eT*eG*e[5mC]*e[5mC]*eT*eG*e[5mC]*eT*eG*eT) [compound 327900] is ____.
# output 102

More entries:
# input Which IGFBP1 mRNA reading was recorded for the substance 341806 (antisense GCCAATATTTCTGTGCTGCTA; all 2'-MOE, all phosphorothioate, methylation of C not given here) [compound 341806] ?
# output 128

# input Could you tell me which IGFBP1 mRNA is on file for 327958 (antisense e[5mC]*e[5mC]*eG*eG*e[5mC]*eT*eG*e[5mC]*eA*eA*e[5mC]*eA*e[5mC]*eA*eA*eG*eA*e[5mC]*eA*e[5mC]*eG*eA) [compound 327958] ?
# output 119

# input Could you share which IGFBP1 mRNA value was measured for 327887 (antisense eG*e[5mC]*eG*eA*e[5mC]*e[5mC]*eA*eT*eG*eG*e[5mC]*eT*eG*eT*eA*eG*eA*e[5mC]*eT*eG*eT*eT*eA) [compound 327887] ?
# output 119

# input So what's the measured IGFBP1 mRNA for this one? 341803 (antisense CCACACACTTCCTTACATTCCA; all 2'-MOE, all phosphorothioate, methylation of C not given here) [compound 341803]
# output 107

# input # get_value(readout='IGFBP1 mRNA', item= 327952 (antisense e[5mC]*eT*eA*e[5mC]*eG*e[5mC]*eG*eT*eA*eT*eT*e[5mC]*eT*eT*eA*eA*eG*e[5mC]*eA*eA*eT*eA) [compound 327952] )
# output 123
